system tested: PI3K-δ (PI3K(p1108/p857) (h)) (Homo sapiens, UniProt O00329)
Sequence (O00329 whole entry): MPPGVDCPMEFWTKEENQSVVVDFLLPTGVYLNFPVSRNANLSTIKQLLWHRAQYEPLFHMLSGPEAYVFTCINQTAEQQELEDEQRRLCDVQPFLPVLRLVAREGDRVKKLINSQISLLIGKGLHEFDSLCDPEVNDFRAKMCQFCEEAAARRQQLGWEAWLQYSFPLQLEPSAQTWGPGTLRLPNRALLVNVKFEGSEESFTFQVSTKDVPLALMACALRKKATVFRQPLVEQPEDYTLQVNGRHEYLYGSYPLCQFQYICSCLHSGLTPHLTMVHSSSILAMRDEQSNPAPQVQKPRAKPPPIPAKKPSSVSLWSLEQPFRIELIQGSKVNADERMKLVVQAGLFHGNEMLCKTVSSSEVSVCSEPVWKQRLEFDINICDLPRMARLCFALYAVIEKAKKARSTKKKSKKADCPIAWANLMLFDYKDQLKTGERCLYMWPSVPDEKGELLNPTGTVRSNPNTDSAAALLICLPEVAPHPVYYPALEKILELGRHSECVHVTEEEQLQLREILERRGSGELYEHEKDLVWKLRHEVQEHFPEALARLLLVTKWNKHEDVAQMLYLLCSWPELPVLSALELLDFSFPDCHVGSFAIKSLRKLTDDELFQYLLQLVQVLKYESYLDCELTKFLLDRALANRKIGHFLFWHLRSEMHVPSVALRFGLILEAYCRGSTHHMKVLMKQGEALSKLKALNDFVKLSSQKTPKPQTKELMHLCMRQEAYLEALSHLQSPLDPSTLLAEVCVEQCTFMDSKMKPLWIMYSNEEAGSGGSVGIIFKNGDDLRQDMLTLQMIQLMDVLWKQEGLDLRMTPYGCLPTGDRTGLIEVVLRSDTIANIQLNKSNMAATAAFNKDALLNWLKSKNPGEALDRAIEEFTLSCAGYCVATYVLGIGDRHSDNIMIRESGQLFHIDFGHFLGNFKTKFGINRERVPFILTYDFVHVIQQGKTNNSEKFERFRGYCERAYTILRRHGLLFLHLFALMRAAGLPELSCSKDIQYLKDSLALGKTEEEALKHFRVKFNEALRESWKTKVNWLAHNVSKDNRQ
Sequence (P27986 whole entry partner): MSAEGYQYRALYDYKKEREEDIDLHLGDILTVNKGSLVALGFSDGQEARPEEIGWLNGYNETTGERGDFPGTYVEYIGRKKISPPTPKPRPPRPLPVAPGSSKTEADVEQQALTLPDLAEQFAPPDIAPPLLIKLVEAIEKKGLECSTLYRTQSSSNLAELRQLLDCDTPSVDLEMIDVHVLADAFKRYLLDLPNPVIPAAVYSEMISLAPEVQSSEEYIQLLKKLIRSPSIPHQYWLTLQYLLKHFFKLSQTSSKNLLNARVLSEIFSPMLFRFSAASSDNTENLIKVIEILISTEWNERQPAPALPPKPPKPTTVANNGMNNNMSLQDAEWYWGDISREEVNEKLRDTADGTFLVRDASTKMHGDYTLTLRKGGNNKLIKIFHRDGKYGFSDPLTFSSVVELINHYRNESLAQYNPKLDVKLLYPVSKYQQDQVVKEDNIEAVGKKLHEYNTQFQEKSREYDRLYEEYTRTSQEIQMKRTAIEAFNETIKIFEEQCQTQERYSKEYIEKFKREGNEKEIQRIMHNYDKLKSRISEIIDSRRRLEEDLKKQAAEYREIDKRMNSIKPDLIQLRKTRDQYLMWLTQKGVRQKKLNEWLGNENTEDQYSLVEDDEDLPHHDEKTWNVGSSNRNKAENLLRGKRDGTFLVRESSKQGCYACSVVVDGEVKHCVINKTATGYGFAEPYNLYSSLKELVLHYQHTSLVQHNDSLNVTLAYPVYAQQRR
test method notes: Evaluation of inhibitory activity against PI3K-δ (HTRF kinase assay)
Format: biochemical
measurement setup: compound concentration 0.01 μM; read-out: EXP_VALUE(% Inhibition) PI3K-δ 0.01 μM
Label fulfilled when inhibition at 0.01 µM is at or above 60%; anything below gets not fulfilled.

Lookup: Is inhibition at 0.01 µM for C[C@H](Nc1ncnc2[nH]ccc(=O)c12)c1c(Cl)c2cccc(-c3ccc(-c4nccs4)cc3)c2c(=O)n1-c1ccccc1 at or above 60%?
Found: fulfilled

Lookup: Is inhibition at 0.01 µM for COc1ccc(-c2cccc3c(Cl)c([C@H](C)Nc4ncnc5[nH]ccc(=O)c45)n(-c4ccccc4)c(=O)c23)cn1 at or above 60%?
Found: fulfilled

Lookup: Is inhibition at 0.01 µM for C[C@H](Nc1ncnc2[nH]ccc(=O)c12)c1c(Cl)c2cccc(-c3ccc4[nH]c(=O)[nH]c4c3)c2c(=O)n1-c1ccccc1 at or above 60%?
Found: fulfilled

Lookup: Is inhibition at 0.01 µM for C[C@H](Nc1ncnc2[nH]ccc(=O)c12)c1c(Cl)c2cccc(-c3cccc(F)c3)c2c(=O)n1-c1ccccc1 at or above 60%?
Found: fulfilled

Lookup: Is inhibition at 0.01 µM for C[C@H](Nc1ncnc2[nH]ccc(=O)c12)c1c(Cl)c2cccc(C3OCC(C)(C)CO3)c2c(=O)n1-c1ccccc1 at or above 60%?
Found: not fulfilled

Lookup: Is inhibition at 0.01 µM for C[C@H](Nc1ncnc2[nH]ccc(=O)c12)c1c(Cl)c2cccc(-c3cnc(OC(C)(C)C)cn3)c2c(=O)n1-c1ccccc1 at or above 60%?
Found: not fulfilled

Lookup: Is inhibition at 0.01 µM for Cc1nc(N)ncc1-c1cccc2c(Cl)c([C@H](C)Nc3ncnc4[nH]ccc(=O)c34)n(-c3ccccc3)c(=O)c12 at or above 60%?
Found: fulfilled

Lookup: Is inhibition at 0.01 µM for C[C@H](Nc1ncnc2[nH]ccc(=O)c12)c1c(Cl)c2cccc(-c3cnc(CC#N)nc3)c2c(=O)n1-c1ccccc1 at or above 60%?
Found: not fulfilled

Lookup: Is inhibition at 0.01 µM for Cc1ncc(-c2cccc3c(Cl)c([C@H](C)Nc4ncnc5[nH]ccc(=O)c45)n(-c4ccccc4)c(=O)c23)cn1 at or above 60%?
Found: fulfilled

Lookup: Is inhibition at 0.01 µM for C[C@H](Nc1ncnc2[nH]ccc(=O)c12)c1c(Cl)c2cccc(-c3cnc(N(C)C)cn3)c2c(=O)n1-c1ccccc1 at or above 60%?
Found: not fulfilled

Lookup: Is inhibition at 0.01 µM for CSc1ncc(-c2cccc3c(Cl)c([C@H](C)Nc4ncnc5[nH]ccc(=O)c45)n(-c4ccccc4)c(=O)c23)cn1 at or above 60%?
Found: fulfilled

Lookup: Is inhibition at 0.01 µM for COc1cc(-c2cccc3c(Cl)c([C@H](C)Nc4ncnc5[nH]ccc(=O)c45)n(-c4ccccc4)c(=O)c23)ccc1OC(F)(F)F at or above 60%?
Found: not fulfilled

Lookup: Is inhibition at 0.01 µM for CC(Oc1cccc2c(Cl)c([C@H](C)Nc3ncnc4[nH]ccc(=O)c34)n(-c3ccccc3)c(=O)c12)c1ccncc1 (some centres unmarked) at or above 60%?
Found: fulfilled

Lookup: Is inhibition at 0.01 µM for C[C@H](Nc1ncnc2[nH]ccc(=O)c12)c1c(Cl)c2cccc(C#Cc3nccs3)c2c(=O)n1-c1ccccc1 at or above 60%?
Found: not fulfilled

Lookup: Is inhibition at 0.01 µM for C[C@H](Nc1ncnc2[nH]ccc(=O)c12)c1c(Cl)c2cccc(-c3ccc(-c4noc(C(C)(C)C)n4)cc3)c2c(=O)n1-c1ccccc1 at or above 60%?
Found: not fulfilled

Lookup: Is inhibition at 0.01 µM for C[C@H](Nc1ncnc2[nH]ccc(=O)c12)c1c(Cl)c2cccc(-c3ccc(-n4cccc4)nc3)c2c(=O)n1-c1ccccc1 at or above 60%?
Found: fulfilled

Lookup: Is inhibition at 0.01 µM for Cc1c[nH]nc1-c1cccc2c(Cl)c([C@H](C)Nc3ncnc4[nH]ccc(=O)c34)n(-c3ccccc3)c(=O)c12 at or above 60%?
Found: fulfilled

Lookup: Is inhibition at 0.01 µM for CC(=O)Nc1ccc(-c2cccc3c(Cl)c([C@H](C)Nc4ncnc5[nH]ccc(=O)c45)n(-c4ccccc4)c(=O)c23)cn1 at or above 60%?
Found: fulfilled

Lookup: Is inhibition at 0.01 µM for C[C@H](Nc1ncnc2[nH]ccc(=O)c12)c1c(Cl)c2cccc(-c3cnc4ccccc4c3)c2c(=O)n1-c1ccccc1 at or above 60%?
Found: fulfilled

Lookup: Is inhibition at 0.01 µM for C=Cc1cccc2c(Cl)c([C@H](C)Nc3ncnc4[nH]ccc(=O)c34)n(-c3ccccc3)c(=O)c12 at or above 60%?
Found: fulfilled

Lookup: Is inhibition at 0.01 µM for C[C@H](Nc1ncnc2[nH]ccc(=O)c12)c1c(Cl)c2cccc(NCc3ccccc3)c2c(=O)n1-c1ccccc1 at or above 60%?
Found: not fulfilled

Lookup: Is inhibition at 0.01 µM for C[C@H](Nc1ncnc2[nH]ccc(=O)c12)c1c(Cl)c2cccc(N3CCN(c4ccccn4)CC3)c2c(=O)n1-c1ccccc1 at or above 60%?
Found: not fulfilled

Lookup: Is inhibition at 0.01 µM for C[C@H](Nc1ncnc2[nH]ccc(=O)c12)c1c(Cl)c2cccc(-c3ccc4c(c3)ncn4C)c2c(=O)n1-c1ccccc1 at or above 60%?
Found: fulfilled

Lookup: Is inhibition at 0.01 µM for C[C@H](Nc1ncnc2[nH]ccc(=O)c12)c1c(Cl)c2cccc(N3Cc4ccccc4C3)c2c(=O)n1-c1ccccc1 at or above 60%?
Found: not fulfilled

Lookup: Is inhibition at 0.01 µM for C[C@H](Nc1ncnc2[nH]ccc(=O)c12)c1c(Cl)c2cccc(-c3cncnc3)c2c(=O)n1-c1ccccc1 at or above 60%?
Found: fulfilled

Lookup: Is inhibition at 0.01 µM for C[C@H](Nc1ncnc2[nH]ccc(=O)c12)c1c(Cl)c2cccc(-c3ccc(OC(F)(F)F)cc3)c2c(=O)n1-c1ccccc1 at or above 60%?
Found: fulfilled

* * *

I'd appreciate it if you could supply inhibition at 0.01 µM values for the items below.
system tested: DNA-PK(h) (Homo sapiens, UniProt P78527)
test method notes: Evaluation of inhibitory activity against DNA-PK (HTRF kinase assay, GST-cMyc-p53 substrate)
Format: biochemical
measurement setup: compound concentration 0.01 μM; read-out: EXP_VALUE(% Inhibition) DNA-PK(h) 0.01 μM
State just the number; it will be interpreted in %.

Entry under test: CNC(=O)c1ccc(-c2cccc3c(Cl)c([C@H](C)Nc4ncnc5[nH]ccc(=O)c45)n(-c4ccccc4)c(=O)c23)cn1 [Example 196] . Its inhibition at 0.01 µM was 101

Entry under test: C[C@H](Nc1ncnc2[nH]ccc(=O)c12)c1c(Cl)c2cccc(N(C)Cc3ccc4ccccc4c3)c2c(=O)n1-c1ccccc1 [Example 334] . Its inhibition at 0.01 µM was 10

Entry under test: C=Cc1cccc2c(Cl)c([C@H](C)Nc3ncnc4[nH]ccc(=O)c34)n(-c3ccccc3)c(=O)c12 [Example 142] . Its inhibition at 0.01 µM was 50

Entry under test: C[C@H](Nc1ncnc2[nH]ccc(=O)c12)c1c(Cl)c2cccc(Nc3ccccn3)c2c(=O)n1-c1ccccc1 [Example 348] . Its inhibition at 0.01 µM was -1

Entry under test: C[C@H](Nc1ncnc2[nH]ccc(=O)c12)c1c(Cl)c2cccc(N3CCN(c4ccccc4)CC3)c2c(=O)n1-c1ccccc1 [Example 326] . Its inhibition at 0.01 µM was -4

Entry under test: CCOC(=O)c1cccc2c(Cl)c([C@H](C)Nc3ncnc4[nH]ccc(=O)c34)n(-c3ccccc3)c(=O)c12 [Example 292] . Its inhibition at 0.01 µM was 79

Entry under test: C[C@H](Nc1ncnc2[nH]ccc(=O)c12)c1c(Cl)c2cccc(-c3ccc(C4CCOCC4)cc3)c2c(=O)n1-c1ccccc1 [Example 176] . Its inhibition at 0.01 µM was 48

Entry under test: C[C@H](Nc1ncnc2[nH]ccc(=O)c12)c1c(Cl)c2cccc(Nc3cccnc3)c2c(=O)n1-c1ccccc1 [Example 347] . Its inhibition at 0.01 µM was 28

Entry under test: CC(=O)Nc1ccc(-c2cccc3c(Cl)c([C@H](C)Nc4ncnc5[nH]ccc(=O)c45)n(-c4ccccc4)c(=O)c23)cn1 [Example 202] . Its inhibition at 0.01 µM was 70

Entry under test: C[C@H](Nc1ncnc2[nH]ccc(=O)c12)c1c(Cl)c2cccc(-c3ccc4ncncc4c3)c2c(=O)n1-c1ccccc1 [Example 32] . Its inhibition at 0.01 µM was 75

Entry under test: C[C@H](Nc1ncnc2[nH]ccc(=O)c12)c1c(Cl)c2cccc(-c3cccc4c3cnn4C)c2c(=O)n1-c1ccccc1 [Example 237] . Its inhibition at 0.01 µM was 29

Entry under test: Cc1ccsc1-c1cccc2c(Cl)c([C@H](C)Nc3ncnc4[nH]ccc(=O)c34)n(-c3ccccc3)c(=O)c12 [Example 243] . Its inhibition at 0.01 µM was 32

Entry under test: C[C@H](Nc1ncnc2[nH]ccc(=O)c12)c1c(Cl)c2cccc(-c3cnc(NC4CC4)nc3)c2c(=O)n1-c1ccccc1 [Example 203] . Its inhibition at 0.01 µM was 79
